Biological target: NPAS1;ARNT (mouse;mouse?, UniProt A2RSH6;P53762 43-423;82-464, |)
Sequence (chain, as listed by the source |, chain 1 of 2): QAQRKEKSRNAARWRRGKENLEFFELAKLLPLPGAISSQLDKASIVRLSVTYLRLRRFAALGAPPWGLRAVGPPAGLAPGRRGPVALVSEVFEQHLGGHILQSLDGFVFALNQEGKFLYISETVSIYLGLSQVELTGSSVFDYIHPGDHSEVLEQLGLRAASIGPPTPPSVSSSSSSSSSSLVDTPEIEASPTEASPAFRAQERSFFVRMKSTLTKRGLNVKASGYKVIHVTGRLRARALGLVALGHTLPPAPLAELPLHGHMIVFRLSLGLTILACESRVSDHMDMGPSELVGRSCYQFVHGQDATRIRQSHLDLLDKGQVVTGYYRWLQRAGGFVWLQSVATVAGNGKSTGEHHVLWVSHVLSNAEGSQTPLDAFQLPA
Sequence (P53762 82-464, chain 2 of 2): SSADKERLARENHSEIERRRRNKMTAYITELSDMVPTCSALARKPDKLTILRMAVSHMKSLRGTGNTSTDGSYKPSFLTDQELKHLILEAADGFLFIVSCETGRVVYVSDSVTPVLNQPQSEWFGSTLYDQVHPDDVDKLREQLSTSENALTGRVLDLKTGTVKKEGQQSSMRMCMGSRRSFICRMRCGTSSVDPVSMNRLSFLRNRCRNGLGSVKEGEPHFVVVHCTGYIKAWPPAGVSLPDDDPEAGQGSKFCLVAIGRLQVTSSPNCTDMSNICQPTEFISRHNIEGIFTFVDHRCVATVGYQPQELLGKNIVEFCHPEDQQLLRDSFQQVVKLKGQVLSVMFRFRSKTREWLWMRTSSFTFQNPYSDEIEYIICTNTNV
Experiment: fluorescence anisotropy; FP: 2 nM DNA, 20 mM Tris pH 8.0, 50 mM NaCl, 10 mM DTT, 30 min, temperature not stated (DNA annealed in 10 mM Tris pH 7.5, 1 mM EDTA, 2 mM MgCl2)
Details: protein: recombinant;recombinant; tags: vector pSJ2; copies: 1;1; blunt
METRIC: Kd

INSERT INTO assay_data (binder, metric, measurement) VALUES
  ('HRE 21-mer (FP probe) (dsDNA) DNA 1: GGCTGCGTACGTGCGGGTCGT DNA 2: ACGACCCGCACGTACGCAGCC', 'Kd', '16.3 nM');
